- Tested on: BaF3
- Test Protocol: Antiproliferative activity against mouse BaF3 cells harbouring BCR-ABL T315I mutant by MTS assay
- Format: cell-based
Reported Property: IC50

Reference set, count: 2
Structure As Smiles	IC50
Cc1sc(Nc2cccc(C(=O)NCC(=O)O)c2)nc1-c1ccc(F)cc1	> 64 µM
CC(=O)CNC(=O)c1cccc(Nc2nc(-c3ccc(O)cc3)c(C)s2)c1	> 64 µM

Now turn to the next compound.
[ask] // fetch BaF3 IC50 for `Cc1sc(Nc2cccc(C(=O)NCC(=O)O)c2)nc1-c1ccc(C(F)(F)F)cc1`
[reply] > 64 µM

----------
- Test system: K562
- Test Protocol: Antiproliferative activity against human K562 cells by MTS assay
- Assay type: functional, cell-based
Reported Property: IC50 (µM)

Structure As Smiles	IC50 / µM
Cc1sc(Nc2cccc(C(=O)N[C@@H](Cc3ccccc3)C(=O)O)c2)nc1-c1ccccc1	66
Cc1ccc(-c2nc(Nc3cccc(C(=O)N[C@@H](Cc4ccccc4)C(=O)O)c3)sc2C)cc1	48.8
CC(=O)CNC(=O)c1cccc(Nc2nc(-c3ccc(O)cc3)c(C)s2)c1	66.3
Cc1sc(Nc2cccc(C(=O)N[C@@H](Cc3ccccc3)C(=O)O)c2)nc1-c1ccc(C(F)(F)F)cc1	44.1
Cc1sc(Nc2cccc(C(=O)NCC(=O)O)c2)nc1-c1ccccc1	57.6
